# METHOD: NCI Yeast Anticancer Drug Screen. Data for the cln2 rad14 strain (AID 165);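 further: 0% = growth equal to vehicle treated cultures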
# STATED CONDITIONS: S. cerevisiae cln2 rad14 strain, at 50.0 µM, active compounds read high
This is part of a sample that, as a whole, favours compounds with a hit. Of some 79,000 tested, about 15% had one in any assay.
MEASURED ATTRIBUTE: growth inhibition (%)
Please reply with the bare figure in % and do not write the unit itself.

Example results:
COMPOUND | growth inhibition / %
COc1cc2c(cc1O)C(=O)CCCC2 | -2.25
CN1CC(C(N)=O)=CC(C(N)=O)C1 (stereo not drawn) | -0.6

In the following, a different compound is considered.
[Q] I would be grateful if you could share the reported growth inhibition for CCOC(=O)C(CCCN=C(N)NC(=O)OCc1ccccc1)NC(=O)C(C(C)C)N1C(=O)c2ccccc2C1=O (stereo not drawn) .
[A] 52

---

# METHOD: NCI Yeast Anticancer Drug Screen. Data for the rad50 strain (AID 155);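 further: 0% = growth of vehicle-only cultures of the same strain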
# STATED CONDITIONS: S. cerevisiae rad50 strain growth inhibition; at 50.0 µM; active compounds read high
Compounds without any hit were thinned out: in the full panel of roughly 79,000, 15% have a hit.
MEASURED ATTRIBUTE: growth inhibition (%)
Please reply with the bare figure in % and do not write the unit itself.

Example results:
COMPOUND | growth inhibition / %
O=c1[nH]c(=O)n(C2OC(CO)C(O)C2O)cc1I (stereo not given) | -10.2
Nc1cccc(N2N=C(C(=O)O)CC2=O)c1 | -7

[Q] I would be grateful if you could share the reported growth inhibition for COC1(OC)CC2C(=O)N(Cc3ccccc3)C1C(S(=O)(=O)c1ccccc1)C2S(=O)(=O)c1ccccc1 (stereo not given) .
[A] 27.6

[Q] // same read-out, input: CC1NC(C(=O)O)Cc2cc(O)c(O)cc21 (stereo not given)
[A] -21.2

---

# METHOD: NCI Yeast Anticancer Drug Screen. Data for the mec2-1 strain (AID 157)
# STATED CONDITIONS: S. cerevisiae mec2-1 strain, at 50.0 µM, active compounds read high
This is part of a sample that, as a whole, favours compounds with a hit. Of some 79,000 tested, about 15% had one in any assay.
MEASURED ATTRIBUTE: growth inhibition (%)
Please reply with the bare figure in % and do not write the unit itself.

COMPOUND | MEASURED ATTRIBUTE | MEASUREMENT UNITS | REPORTED
COC1C(=O)OC(=O)C1OC (stereo unspecified) | growth inhibition | % | -15.1
CCn1c(=O)c(C#N)c2n(CC)c3cc(C)c(C)cc3n2c1=O | growth inhibition | % | -2.9
CCc1nc2c(N)ncnc2o1 | growth inhibition | % | -1.5

[Q] I would be grateful if you could share the reported growth inhibition for CC1NC(=O)C(C)C(c2ccccc2)N(N=O)C1c1ccccc1 (stereo unspecified) .
[A] 7.8

[Q] // same read-out, input: CC(=O)C(C)(C)CCC(C)(C)C(C)=O
[A] -12.6

[Q] // same read-out, input: CN=C(NC#N)NCc1ccccc1
[A] 7.35

[Q] // same read-out, input: CC(=O)Oc1cc(C(C)C)c(OCCN(C)C)cc1C
[A] 10.3

[Q] // same read-out, input: COC(=O)c1ccccc1NC(=O)Nc1ccccc1
[A] 9.35

[Q] // same read-out, input: Cc1ccc(NCC(O)CN2CCCC2)cc1 (stereo unspecified)
[A] 5.35

[Q] // same read-out, input: Cc1ncc(Cl)c2cc3ccccc3cc12
[A] 2.1

---

# METHOD: NCI Yeast Anticancer Drug Screen. Data for the bub3 strain (AID 167)
# STATED CONDITIONS: S. cerevisiae bub3 mutant strain, at 50.0 µM, active compounds read high
This is part of a sample that, as a whole, favours compounds with a hit. Of some 79,000 tested, about 15% had one in any assay. The source made the active and inactive calls. Cut-off read from the data, not from the text of the source: active = growth inhibition above about 70%; inactive = the rest.
MEASURED ATTRIBUTE: growth inhibition

COMPOUND | MEASURED ATTRIBUTE | REPORTED
CCC(Cc1ccco1)C(=O)NC(N)=O (configuration not stated) | growth inhibition | 0.65% (inactive)
Cc1nc2c(=O)[nH]c(=S)[nH]c2[nH]c1=O | growth inhibition | -1.3% (inactive)
Nc1ccc(F)c([N+](=O)[O-])c1 | growth inhibition | -1.55% (inactive)
Nc1cccc2c1CCC=C2 | growth inhibition | 7.6% (inactive)
O=C1CCCCCCCCCCC1Cc1cc(O)c(CC2CCCCCCCCCCC2=O)cc1O (configuration not stated) | growth inhibition | -5.8% (inactive)
O=C(NC(CSSCC(NC(=O)OCc1ccccc1)C(=O)O)C(=O)O)OCc1ccccc1 (configuration not stated) | growth inhibition | -33% (inactive)

[Q] I would be grateful if you could share the reported growth inhibition for Fc1ccc(F)c(C2SCc3nc4ccccc4n32)c1 (configuration not stated) .
[A] 16.6% (inactive)

---

List of growth inhibition values.
# METHOD: NCI Yeast Anticancer Drug Screen. Data for the mec2-1 strain (AID 157)
# STATED CONDITIONS: S. cerevisiae mec2-1 strain, at 50.0 µM, active compounds read high
# Method: Growth inhibition of yeast strains with defined genetic alterations is measured as a screen for potential anti-cancer activity. Selected strains with alterations in DNA damage repair or cell cycle control were exposed to compounds and growth inhibition was measured relative to vehicle treated controls. The strain used in this assay is mec2-1
Compounds without any hit were thinned out: in the full panel of roughly 79,000, 15% have a hit.
Please reply with the bare figure in % and do not write the unit itself.

[Q] I would be grateful if you could share the reported growth inhibition for COC(=O)c1nc(N)nc(C(=O)OC)c1C(=O)c1cccc2ccccc12 .
[A] -26.1

---

List of growth inhibition values.
# METHOD: NCI Yeast Anticancer Drug Screen. Data for the rad50 strain (AID 155);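 further: 0% = growth of vehicle-only cultures of the same strain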
# STATED CONDITIONS: S. cerevisiae rad50 strain growth inhibition; at 50.0 µM; active compounds read high
About 79,000 compounds went through this panel and 15% of them were active in at least one assay; those are over-represented in the sample as a whole.
Please reply with the bare figure in % and do not write the unit itself.

COMPOUND | MEASUREMENT UNITS | growth inhibition
Cc1ccc(OCC(=O)C2CSc3ccc(Cl)cc32)cc1 (stereo not given) | % | 67.8
O=C(O)c1c2c(nc3ccccc13)CCC2 | % | 2.55
CC(=O)NO | % | 22.1
COC(=O)NC(c1ccccc1)C(C)I (stereo not given) | % | 7.3
N=c1sc2ccccc2n1CC(=O)O | % | 2.2

[Q] I would be grateful if you could share the reported growth inhibition for COC(=O)NC1C(=O)CCC(=O)C1C(N)=O (stereo not given) .
[A] -23.4

[Q] // same read-out, input: C=CCN1C(=O)c2ccccc2C1=O
[A] 24.3

[Q] // same read-out, input: CCOC(=N)CC(=O)Nc1ccccc1
[A] 4.45

[Q] // same read-out, input: c1ccc(C2(c3ccccc3)CC([P+](c3ccccc3)(c3ccccc3)c3ccccc3)N=N2)cc1 (stereo not given)
[A] 99.3

[Q] // same read-out, input: Cc1cc(Cl)ccc1NC(=O)C1C(=O)C(=O)N(c2ccc(Cl)cc2C)C1=O (stereo not given)
[A] 7.4

[Q] // same read-out, input: CN(C)CC(=O)N1CCc2c([nH]c3ccccc23)C1c1cccnc1 (stereo not given)
[A] -44.9

---

List of growth inhibition values.
# METHOD: NCI Yeast Anticancer Drug Screen. Data for the mlh1 rad18 strain (AID 175)
# STATED CONDITIONS: S. cerevisiae mlh1 rad18 strain growth inhibition; at 50.0 µM; active compounds read high
This is part of a sample that, as a whole, favours compounds with a hit. Of some 79,000 tested, about 15% had one in any assay.
Please reply with the bare figure in % and do not write the unit itself.

[Q] I would be grateful if you could share the reported growth inhibition for O=C(O)c1c2c(nc3ccccc13)CCC2 .
[A] -8.4

---

List of growth inhibition values.
# METHOD: NCI Yeast Anticancer Drug Screen. Data for the cln2 rad14 strain (AID 165);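 further: 0% = growth equal to vehicle treated cultures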
# STATED CONDITIONS: S. cerevisiae cln2 rad14 strain, at 50.0 µM, active compounds read high
About 79,000 compounds went through this panel and 15% of them were active in at least one assay; those are over-represented in the sample as a whole.
Please reply with the bare figure in % and do not write the unit itself.

Example results:
MOLECULE | REPORTED
CCCCCCCCCCCCCCCCC[CH2][Sn]([Cl])([CH2]CCCCCCCCCCCCCCCCC)[CH2]CCCCCCCCCCCCCCCCC | -2.55
NCCCOCCN1CCN(c2ccccc2)CC1 | -39.5
Clc1nc(Cl)c2ncn(C3CCCCO3)c2n1 (configuration not stated) | 4.6
O=CC(O)C(O)C(O)C(O)COC(=S)OCC(O)C(O)C(O)C(O)C=O (configuration not stated) (tested in a mixture with another compound) | -3.1
CCc1cc2c(O)c(c1)Cc1cc(CC)cc(c1O)Cc1cc(CC)cc(c1O)Cc1cc(CC)cc(c1O)Cc1cc(CC)cc(c1O)Cc1cc(CC)cc(c1O)Cc1cc(CC)cc(c1O)C2 | 6.5

[Q] I would be grateful if you could share the reported growth inhibition for COC(=O)C(c1ccccc1)C(CBr)(OC)c1ccccc1 (configuration not stated) .
[A] 15.8

[Q] // same read-out, input: NNC(=Nc1ccccc1)SCc1ccccc1
[A] 7.75

[Q] // same read-out, input: COC(=O)C(Cc1ccccc1)NC(=O)C(CCC(=O)OCc1ccccc1)NC(=O)OC(C)(C)C (configuration not stated)
[A] 19.9

[Q] // same read-out, input: Cc1c(C(CC(=O)c2ccccc2)C(=O)O)c2ccccc2n1C (configuration not stated)
[A] -32.3

[Q] // same read-out, input: Cc1ccc(NC(=S)N/C=C(\c2ccccc2)S(=O)Cc2ccccc2)c(C)c1 (configuration not stated)
[A] 15.7
